tested on: L1210; assay: Cross resistance to the compound expressed as log of ratio of molar concentration of drug inducing 50% inhibition of growth in murine leukemia L1210/R71 and L1210/0 cells; format: functional, Mus musculus
Parameter: Log CR

• Cc1nc(N)nc(N)c1-c1ccc(Cl)c(Cl)c1 = 1.7
• COc1ccc(OC)c(Cc2cnc3nc(N)nc(N)c3c2C)c1 = 1.89
• Sc1ncnc2nc[nH]c12 [MERCAPTOPURINE ANHYDROUS] = 0.6
• COc1cc(NCc2ccc3nc(N)nc(N)c3c2C)cc(OC)c1OC [TRIMETREXATE] = 1.75
